Test system: drug-resistant MCF7-ADR human breast tumour cells
Assay Info: In vitro drug-resistant cell phenotype and substrate phosphorylation assay (phosphohistone H3)
Type: cell-based
Measurement Setup: NCI/ADR-RES, MCF7-ADR cells overexpressing drug-resistant proteins, read-out: EC50 for inhibition of phosphohistone H3 levels
pEC50: −log10 of the molar value.

- Smiles Data: "COc1cc(OCCN(C)CCO)c2c(Nc3cc(CC(=O)Nc4cccc(F)c4F)[nH]n3)ncnc2c1"
  pEC50: 6.40
